Values compiled from patent US5116877A.

assay: Acute toxicity test; type: in vivo, male ICR mice; conditions: mouse, in vivo, po
property-measured: LD50 at 168 h

[[record]]
smiles_entry = "C/C(=C\\C(=O)NC1CC1)c1cccc(Cl)c1"
meas_value = "> 1000 mg/kg"

